tested on: serum cholesterol, ovariectomized rats; experiment: Serum cholesterol in ovariectomized rats (4 days daily oral dosing); assay type: in vivo, rat (female Sprague Dawley); settings: Rattus norvegicus, 96 h; 0.1 mg/kg PO; read-out: Serum Cholesterol (% decrease vs. OVX)
Entries and their measured inhibition in vivo at 0.1 mg/kg follow.
In your response, the unit should come after the numeric value.

Some solved entries appear below for comparison.
[[record]]
molecular_string = "O=C(Oc1cccc(-c2sc3cc(OC(=O)c4ccccc4)ccc3c2C(=O)c2ccc(OCCN3CCCCC3)cc2)c1)c1ccccc1"
system_tested = "serum cholesterol, ovariectomized rats"
outcome_measure = "inhibition in vivo at 0.1 mg/kg"
result = "25.3%"

[[record]]
molecular_string = "Cc1cc(O)ccc1-c1sc2cc(O)ccc2c1C(=O)c1ccc(OCCN2CCCCC2)cc1"
system_tested = "serum cholesterol, ovariectomized rats"
outcome_measure = "inhibition in vivo at 0.1 mg/kg"
result = "39.2%"

[[record]]
molecular_string = "O=C(c1ccc(OCCN2CCCCC2)cc1)c1c(-c2ccc(O)c(Cl)c2)sc2cc(O)ccc12"
system_tested = "serum cholesterol, ovariectomized rats"
outcome_measure = "inhibition in vivo at 0.1 mg/kg"
result = "18.6%"


The molecule listed as COc1ccc2c(C(=O)c3ccc(OCCN4CCCCC4)cc3)c(-c3ccc(OC)c(OC)c3)sc2c1 shows inhibition in vivo at 0.1 mg/kg equal to 24.8%

The molecule listed as O=C(c1ccc(OCCN2CCCCC2)cc1)c1c(-c2cccc(F)c2)sc2cc(O)ccc12 shows inhibition in vivo at 0.1 mg/kg equal to 18.6%

----------
tested on: uterus, ovariectomized rats; assay: Uterine weight in ovariectomized rats (4 days daily oral dosing); type: in vivo, rat (female Sprague Dawley); conditions: Rattus norvegicus, 96 h; 0.1 mg/kg PO; read-out: Uterine weight (% increase vs. OVX)
Classification field: enter satisfied for change in vivo at 0.1 mg/kg values not below 10%, not satisfied for values below it.

Here are 3 compounds together with their reported answers.
[[record]]
molecular_string = "Cc1cc(O)ccc1-c1sc2cc(O)ccc2c1C(=O)c1ccc(OCCN2CCCCC2)cc1"
system_tested = "uterus, ovariectomized rats"
class = "satisfied"

[[record]]
molecular_string = "COc1ccc2c(C(=O)c3ccc(OCCN4CCCCC4)cc3)c(-c3ccc(C(F)(F)F)cc3)sc2c1"
system_tested = "uterus, ovariectomized rats"
class = "satisfied"

[[record]]
molecular_string = "COc1ccc2c(C(=O)c3ccc(OCCN4CCCCC4)cc3)c(-c3ccc(OC)c(OC)c3)sc2c1"
system_tested = "uterus, ovariectomized rats"
class = "not satisfied"


Is reported change in vivo at 0.1 mg/kg greater than or equal to 10% here: O=C(c1ccc(OCCN2CCCCC2)cc1)c1c(-c2cccc(O)c2)sc2cc(O)ccc12
satisfied

Is reported change in vivo at 0.1 mg/kg greater than or equal to 10% here: O=C(c1ccc(OCCN2CCCCC2)cc1)c1c(-c2ccc(O)c(F)c2)sc2cc(O)ccc12
satisfied

----------
Entries and their measured change in vivo at 1 mg/kg follow.
tested on: uterus, ovariectomized rats; assay: Uterine weight in ovariectomized rats (4 days daily oral dosing); format: in vivo, rat (female Sprague Dawley); settings: Rattus norvegicus, 96 h; 1.0 mg/kg PO; read-out: Uterine weight (% increase vs. OVX)
Write the answer as a number in %, unit excluded.

Some solved entries appear below for comparison.
[[record]]
molecular_string = "O=C(c1ccc(OCCN2CCCCC2)cc1)c1c(-c2ccc(O)c(F)c2)sc2cc(O)ccc12"
value_units = "%"
number = 53.7

[[record]]
molecular_string = "COc1ccc2c(C(=O)c3ccc(OCCN4CCCCC4)cc3)c(-c3ccc(OC)c(OC)c3)sc2c1"
value_units = "%"
number = 23.4


Proceeding to the next compound to report its change in vivo at 1 mg/kg.
The compound listed as COc1cc(O)ccc1-c1sc2cc(O)ccc2c1C(=O)c1ccc(OCCN2CCCCC2)cc1 shows change in vivo at 1 mg/kg equal to 69.2

----------
test system: uterus, ovariectomized rats; assay: Uterine weight in ovariectomized rats (4 days daily oral dosing); assay type: in vivo, rat (female Sprague Dawley); conditions: Rattus norvegicus, 96 h; 0.1 mg/kg PO; read-out: Uterine weight (% increase vs. OVX)
outcome measure: change in vivo at 0.1 mg/kg
In your response, the unit should come after the numeric value.

[[record]]
molecular_string = "O=C(c1ccc(OCCN2CCCCC2)cc1)c1c(-c2ccc(C(F)(F)F)cc2)sc2cc(O)ccc12"
result = "-2%"

[[record]]
molecular_string = "COc1ccc(-c2sc3cc(OC)ccc3c2C(=O)c2ccc(OCCN3CCCCC3)cc2)c(OC)c1"
result = "40.1%"


The compound listed as O=C(c1ccc(OCCN2CCCCC2)cc1)c1c(-c2ccccc2O)sc2cc(O)ccc12 shows change in vivo at 0.1 mg/kg equal to -18.3%

----------
System: uterus, ovariectomized rats
Test: Uterine weight in ovariectomized rats (4 days daily oral dosing)
Assay type: in vivo, rat (female Sprague Dawley)
Conditions: Rattus norvegicus, 96 h; 1.0 mg/kg PO; read-out: Uterine weight (% increase vs. OVX)
Description: In the examples illustrating the methods, a postmenopausal model was used in which effects of different treatments upon circulating lipids were determined. […] After a one week acclimation period (therefore, two weeks post-OVX) daily dosing with test compound was initiated. […] The animals were then sacrificed by asphyxiation with CO2, the uterus was removed through a midline incision, and a wet uterine weight was determined. […]
outcome measure: change in vivo at 1 mg/kg (%)
Write the answer as a number in %, unit excluded.

[[record]]
molecule = "O=C(c1ccc(OCCN2CCCCC2)cc1)c1c(-c2cccc(O)c2)sc2cc(O)ccc12 [Example 12]"
system_tested = "uterus, ovariectomized rats"
value_units = "%"
number = 22.7

[[record]]
molecule = "O=C(Oc1cccc(-c2sc3cc(OC(=O)c4ccccc4)ccc3c2C(=O)c2ccc(OCCN3CCCCC3)cc2)c1)c1ccccc1 [Example 13]"
system_tested = "uterus, ovariectomized rats"
value_units = "%"
number = 34.7

[[record]]
molecule = "COc1ccc2c(C(=O)c3ccc(OCCN4CCCCC4)cc3)c(-c3ccc(C(F)(F)F)cc3)sc2c1 [Example 19]"
system_tested = "uterus, ovariectomized rats"
value_units = "%"
number = 15.6


Proceeding to the next molecule to report its change in vivo at 1 mg/kg.
The molecule listed as O=C(c1ccc(OCCN2CCCCC2)cc1)c1c(-c2ccc(C(F)(F)F)cc2)sc2cc(O)ccc12 [Example 20] shows change in vivo at 1 mg/kg equal to 7

----------
test system: serum cholesterol, ovariectomized rats; assay: Serum cholesterol in ovariectomized rats (4 days daily oral dosing); assay type: in vivo, rat (female Sprague Dawley); conditions: Rattus norvegicus, 96 h; 1.0 mg/kg PO; read-out: Serum Cholesterol (% decrease vs. OVX)
Entries and their measured inhibition in vivo at 1 mg/kg follow.
Write the answer as a number in %, unit excluded.

[[record]]
molecular_string = "O=C(c1ccc(OCCN2CCCCC2)cc1)c1c(-c2ccc(C(F)(F)F)cc2)sc2cc(O)ccc12"
number = 47.9

[[record]]
molecular_string = "Cc1cc(-c2sc3cc(O)ccc3c2C(=O)c2ccc(OCCN3CCCCC3)cc2)ccc1O"
number = 77.6

[[record]]
molecular_string = "COc1ccc2c(C(=O)c3ccc(OCCN4CCCCC4)cc3)c(-c3cccc(F)c3)sc2c1"
number = -12

[[record]]
molecular_string = "O=C(c1ccc(OCCN2CCCCC2)cc1)c1c(-c2ccccc2O)sc2cc(O)ccc12"
number = 19.5

[[record]]
molecular_string = "COc1ccc2c(C(=O)c3ccc(OCCN4CCCCC4)cc3)c(-c3ccc(OC)c(OC)c3)sc2c1"
number = 57.8


Proceeding to the next compound to report its inhibition in vivo at 1 mg/kg.
The compound listed as O=C(c1ccc(OCCN2CCCCC2)cc1)c1c(-c2cccc(O)c2)sc2cc(O)ccc12 shows inhibition in vivo at 1 mg/kg equal to 52.3

----------
test system: MCF-7 breast adenocarcinoma cells; test: MCF-7 Proliferation Assay (tritiated thymidine); type: cell-based; details: Homo sapiens, MCF7, 48 hours, read-out: IC50
Entries and their measured log10 of IC50 follow.
All values: log10 IC50 [nM].

Some solved entries appear below for comparison.
[[record]]
compound = "Cc1cc(O)ccc1-c1sc2cc(O)ccc2c1C(=O)c1ccc(OCCN2CCCCC2)cc1 [Example 16]"
number = 0.30

[[record]]
compound = "O=C(c1ccc(OCCN2CCCCC2)cc1)c1c(-c2cccc(O)c2)sc2cc(O)ccc12 [Example 12]"
number = 0.51

[[record]]
compound = "O=C(c1ccc(OCCN2CCCCC2)cc1)c1c(-c2cccc(F)c2)sc2cc(O)ccc12 [Example 22]"
number = 0.40


The compound listed as COc1ccc2c(C(=O)c3ccc(OCCN4CCCCC4)cc3)c(-c3cccc(F)c3)sc2c1 [Example 21] shows log10 of IC50 equal to 2.70

The compound listed as O=C(c1ccc(OCCN2CCCCC2)cc1)c1c(-c2ccc(O)c(Cl)c2)sc2cc(O)ccc12 [Example 5] shows log10 of IC50 equal to 0.36

The compound listed as COc1cc(O)ccc1-c1sc2cc(O)ccc2c1C(=O)c1ccc(OCCN2CCCCC2)cc1 [Example 18] shows log10 of IC50 equal to 0.30

The compound listed as COc1ccc(-c2sc3cc(OC)ccc3c2C(=O)c2ccc(OCCN3CCCCC3)cc2)c(OC)c1 [Example 17] shows log10 of IC50 equal to 2.48

The compound listed as O=C(c1ccc(OCCN2CCCCC2)cc1)c1c(-c2ccc(C(F)(F)F)cc2)sc2cc(O)ccc12 [Example 20] shows log10 of IC50 equal to 3.00

The compound listed as Cc1cc(-c2sc3cc(O)ccc3c2C(=O)c2ccc(OCCN3CCCCC3)cc2)ccc1O [Example 7] shows log10 of IC50 equal to 0.00

The compound listed as Cc1ccccc1-c1sc2cc(O)ccc2c1C(=O)c1ccc(OCCN2CCCCC2)cc1 [Example 23] shows log10 of IC50 equal to -0.15

The compound listed as O=C(c1ccc(OCCN2CCCCC2)cc1)c1c(-c2ccccc2O)sc2cc(O)ccc12 [Example 10] shows log10 of IC50 equal to 1.00

The compound listed as O=C(c1ccc(OCCN2CCCCC2)cc1)c1c(-c2ccc(O)c(F)c2)sc2cc(O)ccc12 [Example 2] shows log10 of IC50 equal to -0.52
